Where these numbers come from: ChEMBL document CHEMBL1142358

Entries and their clearance
ASSAY_INFO: Clearance in mouse at 1 mg/kg, iv
Type: ADME, organism-based
Set-up: dose 1 mg/kg, route intravenous
CONDITIONS: in vivo
Give the value in mL/min/kg but do not write mL/min/kg after it.

>>> value_reported("COc1ccc(-c2ccc(NC(=O)Nc3cccc(C(F)(F)F)c3)cc2)c2c(N)noc12")
28.3

Note: attention shifts to another entry.
Entry under review: COc1ccc(-c2ccc(NC(=O)Nc3cccc(Cl)c3)cc2)c2c(N)noc12 . Reported clearance?
15.5

* * *

ASSAY_INFO: Inhibition of FGFR by HTRF assay
MEASURED_QUANTITY: pIC50
Reminder that pIC50 is minus the log10 of a molar concentration.

Using the record for COc1ccc(-c2ccc(NC(=O)Nc3cccc(C(F)(F)F)c3)cc2)c2c(N)noc12 , report its pIC50.
5.52
